Tested on: Wolbachia pipientis
Assay: Anti-Wolbachia Cell-Based Screen
Format: functional
Set-up: scale not given: in the data most compounds retested in dose-response had high values
Conditions: 5 µM
The whole screen tested about 48,000 compounds, of which about 13,000 (27%) showed an effect of 50% or more. The list shows a part of the results.
Reported Percent Effect values follow for various compounds
Just the number please, in %, no unit attached.

CC(C)c1n[nH]c(C(=O)Nc2cc[nH]n2)c1Br: -7.047
CC(C)c1n[nH]c(C(=O)Nc2ccccn2)c1Br: 113.3
COc1ccc(S(=O)(=O)C(F)(F)F)cc1NC(=O)CSCC#N: 5.684
CC(C)c1n[nH]c(C(=O)Nc2ccnn2C(C)C)c1Br: -14.02
COc1cc(NC(=O)c2cscn2)ncn1: -4.682
CCc1cnc(NCc2nc(CSC)no2)nc1: 19.97
O=C(NC1CC1)N1CCCC2(CCNC2=O)C1 (stereo not drawn): -20.05
CNC(=O)C(C)(C)CNC(=O)Nc1ccncc1C: -8.722
CCNC(=O)CCC(=O)Nc1nc(C)c(Cc2ccc(F)cc2)s1: -19.82
CC(C)c1n[nH]c(C(=O)Nc2ccncc2)c1Br: -16.38

(Q) Query: Percent Effect; subject: COc1ncccc1NC(=O)c1[nH]nc(C(C)C)c1Br
(A) 15.14

(Q) Now try Cc1ccnc(NC(=O)c2[nH]nc(C(C)C)c2Br)c1 .
(A) 97.23

(Q) Now try COCC1CC2(CCN(C(=O)C3CCSCC3)CC2)CO1 (stereo not drawn) .
(A) -14.44
